# TARGET OR TEST SYSTEM: T1, biotinylated recombinant mouse IL-12Rβ2 (mouse, UniProt P97378 24-637, random biotinylated)
# T1 construct: Recombinant protein produced in-house, biotinylated; also called mIL-12RB2; mouse IL-12RB2
# T1 sequence: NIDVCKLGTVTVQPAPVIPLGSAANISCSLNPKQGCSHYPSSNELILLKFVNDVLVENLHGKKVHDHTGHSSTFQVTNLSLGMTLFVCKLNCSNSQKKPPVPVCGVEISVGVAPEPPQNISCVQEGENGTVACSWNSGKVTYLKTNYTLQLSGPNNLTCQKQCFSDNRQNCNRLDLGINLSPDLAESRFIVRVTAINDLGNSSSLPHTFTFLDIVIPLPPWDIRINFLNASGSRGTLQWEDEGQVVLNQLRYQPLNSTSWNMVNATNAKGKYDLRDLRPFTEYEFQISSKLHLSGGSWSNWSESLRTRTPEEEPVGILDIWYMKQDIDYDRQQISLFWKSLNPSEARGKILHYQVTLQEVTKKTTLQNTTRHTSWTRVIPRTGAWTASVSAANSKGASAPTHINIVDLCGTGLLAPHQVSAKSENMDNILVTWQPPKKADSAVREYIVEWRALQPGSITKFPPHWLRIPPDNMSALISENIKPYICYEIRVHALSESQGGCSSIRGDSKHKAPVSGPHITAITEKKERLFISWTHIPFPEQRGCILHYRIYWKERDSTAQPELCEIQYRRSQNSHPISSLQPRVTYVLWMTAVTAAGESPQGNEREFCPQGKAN
# EXPERIMENTAL PROTOCOL: ELISA, periplasmic extract on biotinylated mIL-12Rβ2, signal over control wells
// ELISA binding mIL-12RB2/control lookup, one value per entry
READOUT NAME: ELISA binding mIL-12RB2/control (ratio)

BINDER	REPORTED MEASUREMENT
anti-IL-12Rβ2 VHH clone 20540 (VHH, not shown: small tags and cut ends, tested as periplasmic extract; also called 3CAMS5) VHH: QVQLQESGGGLVQAGDSLRISCAASGRTFSSYGMGWFRQAPGKERDFVAAISRDARYTDYADSVKGRFTISKDNAKNTAYLQMNSLNPEDTAVYFCAAAYTYSGSHYVTARSGDYNYWGQGTQVTVSS	8.57
anti-IL-12Rβ2 VHH clone 20522 (VHH, not shown: small tags and cut ends, tested as periplasmic extract; also called 2CRMS58) VHH: QVQLQESGGGLVQPGGSLRLSCTASGSIFAIDDMYWYRQAPGKQREFVAYITATNSANYLDSVNGRFTISRDNAKNSVYLQMNSLKPEDTAVYYCNAKQIVGFQIDDYWGQGTQVTVSS	5.21
anti-IL-12Rβ2 VHH clone 20497 (VHH, not shown: small tags and cut ends, tested as periplasmic extract; also called 2CAM72) VHH: QVQLQESGGGLVQAGDSLRLSCAASGRTFSSYGMGWFRQAPGKEREFVAAISRGARITDYADSVKGRFTISRDNAKNTAYLQMNSLNPEDTAVYFCAAAYTYSGSHYVTARSSDYHSWGQGTQVTVSS	13.4
anti-IL-12Rβ2 VHH clone 20391 (VHH, not shown: small tags and cut ends, tested as periplasmic extract; also called 3CRH93) VHH: QVQLQESGGGLVQAGGSLRLSCAASGRTVDSYAMGWFRQTPGKEREFVAASWGGGSTYYADSVKGRFTISRDNVKNTMYLQMDSLKPEDTAVYYCAAGPTYYSGPINDNWEGRYDSWGQGTQVTVSS	1.38
